species on record: Rattus norvegicus; experiment: DrugMatrix - Regimen: Daily Repeat; type: toxicity, organism-based, Sprague-Dawley; set-up: regimen Daily Repeat, gender Male, age 6-8 weeks; details: in vivo, po, 0 mg/kg, 72 h, tissue Plasma, route oral GAVAGE, dose level Control, time 3 day, vehicle 100 % WATER
Entries and their CREATINE PHOSPHOKINASE

>  <compound>
CC(C)(S)[C@@H](N)C(=O)O [PENICILLAMINE]

>  <CREATINE PHOSPHOKINASE>
228.33 u/L

$$$$
>  <compound>
NNC(=O)c1ccncc1 [ISONIAZID]

>  <CREATINE PHOSPHOKINASE>
472.83 u/L

$$$$
>  <compound>
CN1CCC[C@H]1c1cccnc1 [NICOTINE]

>  <CREATINE PHOSPHOKINASE>
1308.83 u/L

$$$$
>  <compound>
CN1CCN(C(=O)OC2c3nccnc3C(=O)N2c2ccc(Cl)cn2)CC1 (stereo unspecified) [ZOPICLONE]

>  <CREATINE PHOSPHOKINASE>
372.83 u/L

$$$$
>  <compound>
Cn1cnc([N+](=O)[O-])c1Sc1ncnc2nc[nH]c12 [AZATHIOPRINE]

>  <CREATINE PHOSPHOKINASE>
212 u/L

$$$$
>  <compound>
NC(=O)c1ncn([C@@H]2O[C@H](CO)[C@@H](O)[C@H]2O)n1 [RIBAVIRIN]

>  <CREATINE PHOSPHOKINASE>
503 u/L

$$$$
